EXPERIMENTAL SYSTEM: human TRPM8 (Homo sapiens, UniProt Q7Z2W7)
Sequence (Q7Z2W7 whole entry): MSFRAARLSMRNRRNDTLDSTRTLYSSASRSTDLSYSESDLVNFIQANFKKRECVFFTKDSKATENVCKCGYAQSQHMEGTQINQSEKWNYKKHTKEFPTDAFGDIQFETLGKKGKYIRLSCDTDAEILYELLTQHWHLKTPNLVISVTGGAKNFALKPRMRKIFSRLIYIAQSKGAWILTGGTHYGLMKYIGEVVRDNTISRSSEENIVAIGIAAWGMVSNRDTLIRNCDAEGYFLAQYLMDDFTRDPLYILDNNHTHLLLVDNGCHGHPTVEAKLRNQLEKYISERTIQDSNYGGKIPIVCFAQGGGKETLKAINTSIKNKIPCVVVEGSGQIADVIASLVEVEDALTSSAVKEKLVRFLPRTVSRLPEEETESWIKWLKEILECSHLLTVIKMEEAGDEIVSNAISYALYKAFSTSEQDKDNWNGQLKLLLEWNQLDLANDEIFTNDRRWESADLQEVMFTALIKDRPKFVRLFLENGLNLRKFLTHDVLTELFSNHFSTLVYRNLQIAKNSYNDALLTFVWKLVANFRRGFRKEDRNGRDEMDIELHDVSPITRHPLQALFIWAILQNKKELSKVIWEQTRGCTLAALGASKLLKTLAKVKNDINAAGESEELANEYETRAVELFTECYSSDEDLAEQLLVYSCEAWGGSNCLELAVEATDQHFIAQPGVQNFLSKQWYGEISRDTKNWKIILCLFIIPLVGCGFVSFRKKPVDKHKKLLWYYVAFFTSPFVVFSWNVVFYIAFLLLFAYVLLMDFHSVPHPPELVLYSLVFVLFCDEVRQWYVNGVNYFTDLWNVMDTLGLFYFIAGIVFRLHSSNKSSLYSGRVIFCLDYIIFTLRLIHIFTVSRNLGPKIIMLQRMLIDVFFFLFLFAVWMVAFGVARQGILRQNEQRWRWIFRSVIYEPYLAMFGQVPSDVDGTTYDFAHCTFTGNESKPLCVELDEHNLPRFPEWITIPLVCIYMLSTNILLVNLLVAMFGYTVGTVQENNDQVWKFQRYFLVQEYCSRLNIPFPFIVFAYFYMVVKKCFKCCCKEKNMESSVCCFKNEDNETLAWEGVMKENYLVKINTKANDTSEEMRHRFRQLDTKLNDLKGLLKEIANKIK
PROCEDURE DETAILS: Luminescence readout assay for measuring intracellular calcium (aequorin), hTRPM8 antagonism
MEASUREMENT CONDITIONS: CHO cell line expressing human TRPM8 and aequorin; activation by icilin, L-menthol or cold buffer (table does not say which)
pIC50: −log10 of the molar value.
VALUE TYPE: pIC50

I. O=C(N[C@@H](c1ccc(C(F)(F)F)cc1)c1ncccc1C(F)(F)F)N[C@H]1CCc2ccccc21 [Example 129, acetate]
II. O=C(Nc1cccnc1)N[C@@H](c1ccc(Cl)c(Cl)c1)c1ncccc1C(F)(F)F
III. CSc1ccccc1NC(=O)N[C@@H](c1ccc(C(F)(F)F)cc1)c1ncccc1C(F)(F)F [Example 137, acetate]
IV. O=C(Nc1ccc(F)cc1)NC(c1ccccc1)c1ccc(C(F)(F)F)cc1 (stereo not drawn)
Quick one: which order do the items above go in by pIC50, smallest to largest? Ranked list of labels, please, in the requested order. I, IV, III, II
